Sourced from patent US20240409645A1

- subjectOfTest: T1, mouse IL-2Rβ (mouse) (UniProt P16297)
- T1 sequence (looked up): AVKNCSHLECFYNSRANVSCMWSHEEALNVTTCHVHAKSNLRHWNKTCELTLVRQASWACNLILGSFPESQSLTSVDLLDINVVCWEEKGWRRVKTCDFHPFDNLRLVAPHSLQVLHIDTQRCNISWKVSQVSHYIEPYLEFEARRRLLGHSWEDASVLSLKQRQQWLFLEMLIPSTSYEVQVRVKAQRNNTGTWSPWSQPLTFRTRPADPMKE
- methodSummary: P.E. binding ELISA on coated protein
Here, each record is paired with measured P.E. binding ELISA OD data.

>  <binder>
FJ1427_P035MP03G07 (VHH) VHH: QVQLVESGGGLVQAGGSLRLSCAASGRTFSSDAKGWFRQAPGKEREFVAAITWAGRGTDYADSVKGRFTITRDNAKNMVYLQMSNLKPEDTAVYYCALNPEGVIGPYFRNSNRYNYWGQGTQVTVSS

>  <P.E. binding ELISA OD>
0.048 OD450 nm

$$$$
>  <binder>
FJ1427_P035MP03G02 (VHH) VHH: EVQLVESGGGLVQPGGSLRLSCAISGGTLDSYGIGWVRQAPGKQREGVSCMSRSDDRTFYADSVKGRFTISKDNAKSTVYLQMTNLKPDDTAVYYCAAVDAYGCSLVQPTTYDFWGLGTQVTVSS

>  <P.E. binding ELISA OD>
0.049 OD450 nm

$$$$
>  <binder>
FJ1427_P035MP03E10 (VHH) VHH: EVQLVESGGGLVQPGGSLRLSCAASGFTFRNYAMSWVRQAPGKGLEWVGGITGEGLGTIYQDSVEGRFTISRNNAKNTLYLQMNSLRSEDTAVYYCTKMASGTLFRDKPYEYTSRGQGTQVTVSS

>  <P.E. binding ELISA OD>
0.048 OD450 nm

$$$$
>  <binder>
FJ1427_P035MP03A04 (VHH) VHH: EVQLVESGGGSVQTGGSLRLSCVVSGSHFISDVMGWYRQVPGKQRELVADMADGGSVKYGDSVKGRFTILRDSVKNTVTLQMSSLNPEDTGVYYCKAGLWITGRHFDYWGQGTQVTVTS

>  <P.E. binding ELISA OD>
0.051 OD450 nm

$$$$
